Where do the numbers come from? From paper PMC5540273.

I'd appreciate it if you could supply %Inh values for the items below.
- System: TBK1
- assay conditions: concentration: 1 μM,replicates: in singlicate; n = 1;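 also: KINOMEscan kinase panel screen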
Give bare numbers, in %.

CC(=O)Nc1ccc(-c2cc3ncnc(SCC(=O)O)c3s2)cc1: 15
C[C@@H]1CNc2c(sc3ccc4nc(-c5ccncc5)ccc4c23)C(=O)N1: 9
C[C@@H](Oc1cc(-n2cnc3cc(-c4ccncc4)ccc32)sc1C(N)=O)c1ccccc1Cl: 0
CNC(=O)c1ccccc1Nc1nc(Nc2cccc(CS(C)(=O)=O)c2)ncc1C.O=CO: 44

From here, focus on the item given below.
Q: So what does the record say about %Inh for "COc1cccc(C2=C(Nc3cccc(Cl)c3)C(=O)NC2=O)c1" ?
Result: 2

----------
- Test system: RSK4(Kin.Dom.1-N-terminal)
- Construct: gene RPS6KA6
- assay conditions: concentration: 1 μM,replicates: in singlicate; n = 1
readout kind: %Inh (%)
Numbers only, in %.

COC(=O)c1cccc(NC(=O)NC2CCN(c3ccnc(NCc4ccc(F)cc4)n3)CC2)c1: 0
Cn1ccc2ncnc(Oc3ccc(NC(=O)Nc4ccnc(C(F)(F)F)c4)c(Cl)c3)c21: 0
O=C(NCC1CC1)c1ccc(-c2cc(C(=O)NC3CC3)ccc2F)cc1: 0

// each compound listed below needs its %Inh
1. C[C@@H](Oc1cc(-n2cnc3cc(-c4cnn(C)c4)ccc32)sc1C(N)=O)c1ccccc1Cl
2. COc1cc(Nc2nccc(N3CCC(NC(=O)c4cccc(C#N)c4)C3)n2)cc(OC)c1OC (stereo not drawn)
3. CC(=O)Nc1ccc(-c2cc3ncnc(SCC(=O)O)c3s2)cc1

Result:
1: 37; 2: 0; 3: 13

// each compound listed below needs its %Inh
1. CN1CCN(CCNc2nc3cc(Oc4ccc(NC(=O)Nc5cc(C(F)(F)F)ccc5F)cc4)ccc3[nH]2)CC1.Cl.Cl
2. CN(c1cccc(CNc2nc(Nc3ccc4c(c3)CC(=O)N4)ncc2C(F)(F)F)c1)S(C)(=O)=O
3. CNC(=O)c1ccccc1Nc1nc(Nc2cccc(CS(C)(=O)=O)c2)ncc1C.O=CO
4. CCn1c(-c2nonc2N)nc2cncc(CNC3CCNCC3)c21.Cl
5. CC(C)c1nc(-c2cccc(NS(=O)(=O)c3ccccc3)c2)c(-c2ccnc(Nc3ccc4c(c3)CN(C)CC4)n2)s1

Result:
[0, 77, 99.6, 10, 0]

// each compound listed below needs its %Inh
1. N#Cc1cccc(C(=O)NC2CCN(c3ccnc(Nc4ccc(F)cc4)n3)C2)c1 (stereo not drawn)
2. Cc1n[nH]c2cc(Nc3ccnc(Nc4cccc(CN5CCOCC5)c4)n3)ccc12
3. COC(=O)c1cccc(NC(=O)NC2CCN(c3ccnc(Nc4cc(OC)c(OC)c(OC)c4)n3)C2)c1 (stereo not drawn)
4. C[C@@H]1CCN(C(=O)N2CCCC2)C[C@@H]1N(C)c1ncnc2[nH]ccc12
5. Cn1ccc2ncnc(Oc3ccc(NC(=O)Nc4cnn(C(C)(C)C)c4)c(Cl)c3)c21

Result:
[0, 19, 0, 18, 22]

// each compound listed below needs its %Inh
1. Cn1ccc2ncnc(Oc3ccc(NC(=O)Nc4cncc(C(F)(F)F)c4)c(Cl)c3)c21
2. O=C(Nc1cccc(C(F)(F)F)c1)c1cccc(Oc2ccc3nccn3n2)c1
3. C[C@@H]1CNc2c(sc3ccc4nc(-c5ccc(O)cc5)ccc4c23)C(=O)N1
4. O=C(NOCC1CC1)c1cc(Br)c(F)c(F)c1Nc1ccc(I)cc1Cl
5. CCOC(=O)N1CCC(n2cnc(-c3ccc(F)cc3)c2-c2ccnc(N)n2)CC1

Result:
1: 0; 2: 23; 3: 80; 4: 0; 5: 9

----------
- System: DMPK2
- Construct: gene CDC42BPG
- assay conditions: concentration: 1 μM,replicates: in singlicate; n = 1
I'd appreciate it if you could supply %Inh values for the items below.
Give bare numbers, in %.

O=C(Nc1ccc(Oc2ccc3nc(NC(=O)C4CC4)cn3n2)c(F)c1)c1cccn(-c2ccccc2)c1=O: 0

// each compound listed below needs its %Inh
1. Cl.c1ccc(Oc2ccc(Nc3ccnc4cc(-c5ccc(CN6CCNCC6)o5)ccc34)cc2)nc1
2. CCn1c(-c2nonc2N)nc2cncc(Br)c21
3. Cc1cccc(-c2nc(Nc3ccncc3)c3sccc3n2)n1
4. CN(c1ccccc1CNc1nc(Nc2ccc3c(c2)CC(=O)N3)ncc1C(F)(F)F)S(C)(=O)=O

Result:
[0, 10, 98.5, 0]

// each compound listed below needs its %Inh
1. COC(=O)c1cccc(NC(=O)NC2CCN(c3ccnc(Nc4cc(OC)c(OC)c(OC)c4)n3)C2)c1 (centres unmarked)
2. CC(=O)c1c(-c2ccncc2)[nH]c(-c2ccncc2)c1C
3. CN(c1ccc2c(c1)nc(NCc1ccc(F)cc1)n2C)c1ccnc(Nc2ccc(CS(C)(=O)=O)cc2)n1.Cl
4. CS(=O)(=O)Nc1ccc(-c2ccnc3[nH]ccc23)cc1
5. CNC(=O)c1ccccc1Nc1nc(Nc2cccc(CS(C)(=O)=O)c2)ncc1C.O=CO
6. Cc1ccc(C(=O)Nc2ccc(Oc3ccc4nc(NC(=O)C5CC5)cn4c3)c(F)c2)c(=O)n1-c1ccccc1

Result:
1: 27; 2: 0; 3: 0; 4: 13; 5: 0; 6: 0

// each compound listed below needs its %Inh
1. C[C@@H](Oc1cc(-n2cnc3cc(-c4cnn(C)c4)ccc32)sc1C(N)=O)c1ccccc1Cl
2. Cn1ccc2ncnc(Oc3ccc(NC(=O)Nc4cccc(C(F)(F)F)c4)c(F)c3)c21
3. CCCC(=O)Nc1n[nH]c2ncccc12
4. O=C(Nc1cccc(C(F)(F)F)c1)c1cccc(Oc2ccc3nccn3n2)c1
5. Cl.Nc1n[nH]c2cc(-c3ccccn3)ccc12
6. CSc1nccc(-c2c(-c3ccc(F)cc3)ncn2CCCN2CCOCC2)n1.Cl

Result:
1: 1; 2: 4; 3: 0; 4: 1; 5: 0; 6: 0

// each compound listed below needs its %Inh
1. CCOC(=O)N1CCC(n2cnc(-c3ccc(F)cc3)c2-c2ccnc(N)n2)CC1
2. O=C(NCC1CC1)c1ccc(-c2cc(C(=O)NC3CC3)ccc2F)cc1
3. COc1cc2nccc(Nc3ccc(Oc4ccccc4)cc3)c2cc1OC.Cl

Result:
39
0
6

----------
- Tested on: LCK
- assay conditions: concentration: 1 μM,replicates: in singlicate; n = 1
Values of %Inh greater than or equal to 40% map to YES; values below map to NO.

CC(C(=O)NC1CCN(c2ccnc(Nc3ccc(F)cc3)n2)C1)c1ccc(Cl)cc1 (centres unmarked): NO

Q: Does %Inh meet or surpass 40% for "O=C(NOCC1CC1)c1cc(Br)c(F)c(F)c1Nc1ccc(I)cc1Cl" ?
Result: NO

Q: Does %Inh meet or surpass 40% for "O=C(Nc1cccc(Oc2ccc3nccn3n2)c1)Nc1cccc(C(F)(F)F)c1" ?
Result: YES

Q: Does %Inh meet or surpass 40% for COC(=O)c1cccc(NC(=O)NC2CCN(c3ccnc(Nc4cc(OC)c(OC)c(OC)c4)n3)C2)c1 (centres unmarked) ?
Result: NO

Q: Does %Inh meet or surpass 40% for "COC(=O)c1cccc(NC(=O)NC2CCN(c3ccnc(NCc4ccc(F)cc4)n3)CC2)c1" ?
Result: NO

Q: Does %Inh meet or surpass 40% for COc1cc(Nc2nccc(N3CCC(NC(=O)c4cccc(C#N)c4)C3)n2)cc(OC)c1OC (centres unmarked) ?
Result: NO

----------
- Test system: LIMK1
- assay conditions: concentration: 1 μM,replicates: in singlicate; n = 1
readout kind: %Inh (%)
One number for each entry, in %.

CS(=O)(=O)c1cccc(CNc2nc(Nc3ccc4c(c3)[C@@H]3C[C@@H]4CNC3=O)ncc2C(F)(F)F)c1: 0

// each compound listed below needs its %Inh
1. C[C@@H]1CNc2c(sc3ccc4nc(-c5ccc(O)cc5)ccc4c23)C(=O)N1
2. COc1ccc(Nc2nccc(N3CCC(NC(=O)c4cccc(C#N)c4)C3)n2)cc1 (stereo not drawn)
3. Cl.Nc1n[nH]c2cc(-c3ccccn3)ccc12

Result:
1. 4
2. 0
3. 0

// each compound listed below needs its %Inh
1. COc1cc(Nc2nccc(N3CCC(NC(=O)c4cccc(C#N)c4)C3)n2)cc(OC)c1OC (stereo not drawn)
2. FC(F)(F)c1cc(Br)cc(Nc2nccc(-c3cnn4ncccc34)n2)c1
3. Cc1ccc(C(=O)Nc2ccc(Oc3ccc4nc(NC(=O)C5CC5)cn4c3)c(F)c2)c(=O)n1-c1ccccc1
4. Cc1ccc(CC(=O)N2CCc3cc(-c4cn(C)c5ncnc(N)c45)ccc32)cc1
5. CNC(=O)c1ccccc1Nc1nc(Nc2cccc(CS(C)(=O)=O)c2)ncc1C.O=CO

Result:
1: 92.6; 2: 0; 3: 42; 4: 0; 5: 47

----------
- Tested on: ACVR2A
- assay conditions: concentration: 1 μM,replicates: in singlicate; n = 1
I'd appreciate it if you could supply %Inh values for the items below.
Answers are plain numbers, in %.

CC(=O)c1c(-c2ccncc2)[nH]c(-c2ccncc2)c1C: 0

// each molecule listed below needs its %Inh
1. CC(C(=O)NC1CCN(c2ccnc(Nc3ccc(F)cc3)n2)C1)c1ccc(Cl)cc1 (stereo not drawn)
2. O=C(Nc1n[nH]c2cc(-c3ccco3)ccc12)C1CC1
3. C[C@@H]1CNc2c(sc3ccc4nc(-c5ccncc5)ccc4c23)C(=O)N1
4. C[C@@H](Oc1cc(-n2cnc3ccc(-c4ccncc4)cc32)sc1C(N)=O)c1ccccc1Cl
5. Cn1ccc2ncnc(Oc3ccc(NC(=O)Nc4ccnc(C(F)(F)F)c4)c(Cl)c3)c21
6. CCn1c(-c2nonc2N)nc2cncc(Br)c21
7. O=C(Nc1cccc(C(F)(F)F)c1)c1cccc(Oc2ccc3nccn3n2)c1

Result:
1. 0
2. 9
3. 1
4. 0
5. 4
6. 0
7. 24

Q: So what does the record say about %Inh for "COC(=O)Nc1nc2cc(Oc3ccc(NC(=O)Nc4cc(C(F)(F)F)ccc4Cl)cc3)ccc2[nH]1.Cl" ?
Result: 0
